Numbers sourced from paper PMC10296238.

Listed here are compounds together with their documented icELISA IC50.
Tested on: anti-CPPU mAb 14G1
testMethodNotes: conventional indirect competitive ELISA (icELISA) based on mAb 14G1
Assay type: binding, mouse
assayConditions: optimal assay conditions

[[record]]
compound = "CON(C)C(=O)Nc1ccc(Cl)c(Cl)c1 [Linuron]"
reportedproperty = "icELISA IC50"
experimentalresult = ">2.5 ng/mL"

[[record]]
compound = "CN(C)C(=O)Nc1ccc(Cl)c(Cl)c1 [Diuron]"
reportedproperty = "icELISA IC50"
experimentalresult = ">2.5 ng/mL"

[[record]]
compound = "O=C(Nc1ccccc1)Nc1ccnc(Cl)c1 [Forchlorfenuron (CPPU), Forchlorfenuron]"
reportedproperty = "icELISA IC50"
experimentalresult = "0.0253 ng/mL"


Looking for the measured icELISA IC50 of Clc1ccccc1-c1nnc(-c2ccccc2Cl)nn1 [Clofentezine] , can you help? >2.5 ng/mL

// query: O=C(Nc1ccccc1)Nc1cnns1 [Thidiazuron] >2.5 ng/mL

# iterate: Cc1ccc(NC(=O)N(C)C)cc1Cl [Chlorotoluron] >2.5 ng/mL
